pKi: −log10 of the molar value.
pKi tested on Peptidyl-prolyl cis-trans isomerase FKBP1A (Homo sapiens): recorded values
Sequence (P62942 whole entry): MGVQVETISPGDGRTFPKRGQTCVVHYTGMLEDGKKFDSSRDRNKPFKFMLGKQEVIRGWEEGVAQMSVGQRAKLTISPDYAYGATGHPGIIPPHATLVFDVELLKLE

Reported pKi for O=C(N[C@@H](Cc1ccc(F)cc1)C(=O)NCCCc1ccccc1)c1ccc2ccccc2c1 was < 4.40

Reported pKi for O=C(N[C@@H](Cc1ccc(Cl)cc1)C(=O)NCCCc1ccccc1)c1ccc(F)cc1 was < 4.60

Reported pKi for C(=C\c1nc2ccccc2n1Cc1ccccc1)/c1ccccc1 was < 4.82

Reported pKi for Cn1c(/C=C/c2ccc(Cl)cc2)nc2ccccc21 was < 5.00

Reported pKi for O=C(N[C@H](Cc1ccc(Cl)cc1)C(=O)NCCCc1ccccc1)c1ccc2ccccc2c1 was < 4.30

Reported pKi for CCCn1c(/C=C/c2ccccc2)nc2ccccc21 was < 4.70

====

Observable: Ki

Item CCC(C)(C)C(=O)N[C@H](C(=O)OCCCc1cccnc1)C1CCCC1 was tested on Peptidyl-prolyl cis-trans isomerase FKBP4 (Homo sapiens, UniProt Q02790); the reported Ki is > 25 µM

Item O=C(N[C@@H](Cc1ccc(F)cc1)C(=O)NCCCc1ccccc1)c1ccc2ccccc2c1 was tested on Peptidyl-prolyl cis-trans isomerase FKBP4 (Homo sapiens, UniProt Q02790); the reported Ki is > 40 µM

Item O=C(N[C@@H](Cc1ccc(Cl)cc1)C(=O)NCCCc1ccccc1)c1ccc(F)cc1 was tested on Peptidyl-prolyl cis-trans isomerase FKBP4 (Homo sapiens, UniProt Q02790); the reported Ki is > 25 µM

Item O=C(N[C@@H](Cc1ccc(Cl)cc1)C(=O)NCCCc1ccccc1)c1nc2ccccc2[nH]1 was tested on Peptidyl-prolyl cis-trans isomerase FKBP4 (Homo sapiens, UniProt Q02790); the reported Ki is > 50 µM

Item C(=C\c1nc2ccccc2n1Cc1ccccc1)/c1ccccc1 was tested on Peptidyl-prolyl cis-trans isomerase FKBP4 (Homo sapiens, UniProt Q02790); the reported Ki is > 20 µM

Item CCCn1c(/C=C/c2ccccc2)nc2ccccc21 was tested on Peptidyl-prolyl cis-trans isomerase FKBP4 (Homo sapiens, UniProt Q02790); the reported Ki is > 25 µM

Item CC(C)Cn1c(/C=C/c2ccccc2)nc2ccccc21 was tested on Peptidyl-prolyl cis-trans isomerase FKBP4 (Homo sapiens, UniProt Q02790); the reported Ki is > 20 µM

These data points were gathered from BindingDB's records for patent US12065407.
